meta.source: ChEMBL document CHEMBL2203099

target: Neuromedin-K receptor (Homo sapiens, UniProt P29371, Y247W); assay: Displacement of radioligand [3H]osanetant at human NK3 Y247W mutant expressed in HEK293 cells
Sequence (P29371 whole entry Y247W): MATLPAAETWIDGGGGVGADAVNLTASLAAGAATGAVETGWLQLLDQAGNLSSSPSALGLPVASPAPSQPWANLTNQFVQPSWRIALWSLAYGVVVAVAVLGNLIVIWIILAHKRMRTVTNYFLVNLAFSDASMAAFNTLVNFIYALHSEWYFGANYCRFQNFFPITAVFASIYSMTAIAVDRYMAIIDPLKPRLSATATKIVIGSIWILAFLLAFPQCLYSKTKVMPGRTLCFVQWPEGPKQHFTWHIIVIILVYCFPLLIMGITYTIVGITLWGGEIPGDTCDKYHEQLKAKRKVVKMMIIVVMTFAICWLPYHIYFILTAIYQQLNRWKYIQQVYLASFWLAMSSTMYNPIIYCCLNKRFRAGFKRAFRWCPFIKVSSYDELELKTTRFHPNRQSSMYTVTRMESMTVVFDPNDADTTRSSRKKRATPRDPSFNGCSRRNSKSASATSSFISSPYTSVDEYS
I'd appreciate it if you could supply pKi values for the items below.
FYI, pKi means -log10 of a concentration in mol per litre.

Param item = Cc1cc(F)ccc1-c1cc(N2CCN(S(C)(=O)=O)[C@@H](C)C2)ncc1N(C)C(=O)C(C)(C)c1cc(C(F)(F)F)cc(C(F)(F)F)c1 ; retrieve measured pKi.
8.29

Param item = Cc1cc(F)ccc1-c1cc(N2CC[C@H](O)[C@H]2CO)ncc1N(C)C(=O)C(C)(C)c1cc(C(F)(F)F)cc(C(F)(F)F)c1 ; retrieve measured pKi.
8.47

----------
I'd appreciate it if you could supply Ki values for the items below.
target: Substance-P receptor (Homo sapiens); assay: Displacement of radioligand [3H]SP from wild type human NK1 receptor expressed in HEK293 cells; assay type: cell-based
Sequence (P25103 whole entry): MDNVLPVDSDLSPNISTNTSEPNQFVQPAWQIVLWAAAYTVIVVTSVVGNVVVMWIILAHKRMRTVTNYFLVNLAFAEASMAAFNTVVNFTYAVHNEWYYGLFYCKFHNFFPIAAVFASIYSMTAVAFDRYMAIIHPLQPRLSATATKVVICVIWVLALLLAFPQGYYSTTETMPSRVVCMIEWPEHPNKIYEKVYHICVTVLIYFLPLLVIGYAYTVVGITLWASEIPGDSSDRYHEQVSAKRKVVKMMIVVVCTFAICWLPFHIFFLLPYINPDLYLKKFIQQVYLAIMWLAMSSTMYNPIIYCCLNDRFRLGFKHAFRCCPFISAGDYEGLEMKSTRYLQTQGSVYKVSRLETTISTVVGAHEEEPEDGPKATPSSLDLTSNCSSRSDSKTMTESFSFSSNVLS
Provide the reading as a plain figure in nM.

Param item = Cc1cc(F)ccc1-c1cc(N2CC[C@H](O)C2)ncc1N(C)C(=O)C(C)(C)c1cc(C(F)(F)F)cc(C(F)(F)F)c1 ; retrieve measured Ki.
1.3

Param item = Cc1cc(F)ccc1-c1cc(N2CCN(S(C)(=O)=O)[C@@H](C)C2)ncc1N(C)C(=O)C(C)(C)c1cc(C(F)(F)F)cc(C(F)(F)F)c1 ; retrieve measured Ki.
0.3

Param item = Cc1cc(F)ccc1-c1cc(N2CCN(S(C)(=O)=O)C[C@H]2CO)ncc1N(C)C(=O)C(C)(C)c1cc(C(F)(F)F)cc(C(F)(F)F)c1 ; retrieve measured Ki.
0.7

Param item = Cc1cc(F)ccc1-c1cc(N2CCC[C@H]2CO)ncc1N(C)C(=O)C(C)(C)c1cc(C(F)(F)F)cc(C(F)(F)F)c1 ; retrieve measured Ki.
1.4

Param item = Cc1cc(F)ccc1-c1cc(N2CCC3(CC2)OCCS3(=O)=O)ncc1N(C)C(=O)C(C)(C)c1cc(C(F)(F)F)cc(C(F)(F)F)c1 ; retrieve measured Ki.
1.4

Param item = Cc1cc(F)ccc1-c1cc(N2CCN(S(C)(=O)=O)CC2)ncc1N(C)C(=O)C(C)(C)c1cc(C(F)(F)F)cc(C(F)(F)F)c1 ; retrieve measured Ki.
0.4

Param item = Cc1cc(F)ccc1-c1cc(N2CC[C@H](O)[C@H]2CO)ncc1N(C)C(=O)C(C)(C)c1cc(C(F)(F)F)cc(C(F)(F)F)c1 ; retrieve measured Ki.
0.7

----------
I'd appreciate it if you could supply Ki values for the items below.
molecular target: Neuromedin-K receptor (Homo sapiens, UniProt P29371, H316W); test: Displacement of radioligand [3H]osanetant at human NK3 H316W mutant expressed in HEK293 cells
Sequence (P29371 whole entry H316W): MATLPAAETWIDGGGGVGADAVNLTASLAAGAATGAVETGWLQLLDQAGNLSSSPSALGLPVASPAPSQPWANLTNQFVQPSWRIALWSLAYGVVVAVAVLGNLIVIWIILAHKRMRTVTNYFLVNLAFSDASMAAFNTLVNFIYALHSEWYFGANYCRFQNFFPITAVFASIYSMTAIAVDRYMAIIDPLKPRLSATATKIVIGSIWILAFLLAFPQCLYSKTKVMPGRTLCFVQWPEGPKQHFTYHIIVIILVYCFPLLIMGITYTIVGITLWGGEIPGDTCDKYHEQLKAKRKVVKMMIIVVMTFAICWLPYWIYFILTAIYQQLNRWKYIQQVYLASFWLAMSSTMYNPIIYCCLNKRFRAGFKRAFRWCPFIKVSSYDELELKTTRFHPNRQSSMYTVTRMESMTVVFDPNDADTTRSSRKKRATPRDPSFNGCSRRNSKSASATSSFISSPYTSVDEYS

Param item = Cc1cc(F)ccc1-c1cc(N2CC[C@H](O)[C@H]2CO)ncc1N(C)C(=O)C(C)(C)c1cc(C(F)(F)F)cc(C(F)(F)F)c1 ; retrieve measured Ki.
2.01 µM

Param item = Cc1cc(F)ccc1-c1cc(N2CCN(S(C)(=O)=O)[C@@H](C)C2)ncc1N(C)C(=O)C(C)(C)c1cc(C(F)(F)F)cc(C(F)(F)F)c1 ; retrieve measured Ki.
> 10 µM

----------
I'd appreciate it if you could supply pKi values for the items below.
molecular target: Neuromedin-K receptor (Homo sapiens); experiment: Displacement of [3H]osanetant from wild type human NK3 receptor expressed in HEK293 cells; format: cell-based
FYI, pKi means -log10 of a concentration in mol per litre.

Hello, I am looking for reported pKi with Neuromedin-K receptor (Homo sapiens) for Cc1cc(F)ccc1-c1cc(N2CCN(S(C)(=O)=O)C[C@H]2CO)ncc1N(C)C(=O)C(C)(C)c1cc(C(F)(F)F)cc(C(F)(F)F)c1 . Could you help?
8.92

Hello, I am looking for reported pKi with Neuromedin-K receptor (Homo sapiens) for Cc1cc(F)ccc1-c1cc(N2CCN(S(C)(=O)=O)[C@@H](C)C2)ncc1N(C)C(=O)C(C)(C)c1cc(C(F)(F)F)cc(C(F)(F)F)c1 . Could you help?
8.77

Hello, I am looking for reported pKi with Neuromedin-K receptor (Homo sapiens) for Cc1cc(F)ccc1-c1cc(N2CC[C@H](O)C2)ncc1N(C)C(=O)C(C)(C)c1cc(C(F)(F)F)cc(C(F)(F)F)c1 . Could you help?
7.92

Hello, I am looking for reported pKi with Neuromedin-K receptor (Homo sapiens) for Cc1cc(F)ccc1-c1cc(N2CCN(S(C)(=O)=O)CC2)ncc1N(C)C(=O)C(C)(C)c1cc(C(F)(F)F)cc(C(F)(F)F)c1 . Could you help?
8.62

Hello, I am looking for reported pKi with Neuromedin-K receptor (Homo sapiens) for C[C@@H](O[C@H]1OCCN(Cc2n[nH]c(=O)[nH]2)[C@H]1c1ccc(F)cc1)c1cc(C(F)(F)F)cc(C(F)(F)F)c1 [APREPITANT] . Could you help?
6.34

Hello, I am looking for reported pKi with Neuromedin-K receptor (Homo sapiens) for Cc1cc(F)ccc1-c1cc(N2CC[C@H](O)[C@H]2CO)ncc1N(C)C(=O)C(C)(C)c1cc(C(F)(F)F)cc(C(F)(F)F)c1 . Could you help?
8.54

Hello, I am looking for reported pKi with Neuromedin-K receptor (Homo sapiens) for Cc1cc(F)ccc1-c1cc(N2CCC3(CC2)OCCS3(=O)=O)ncc1N(C)C(=O)C(C)(C)c1cc(C(F)(F)F)cc(C(F)(F)F)c1 . Could you help?
8.46

Hello, I am looking for reported pKi with Neuromedin-K receptor (Homo sapiens) for Cc1cc(F)ccc1-c1cc(N2CCC[C@H]2CO)ncc1N(C)C(=O)C(C)(C)c1cc(C(F)(F)F)cc(C(F)(F)F)c1 . Could you help?
8.82
